Origin of values: patent US20160257697A1

System: HCV replicon 1AY93H
procedure_text: microbe, parasite or virus in culture
Assay type: cell-based, Hepatitis C virus (HCV)
measurement_setup: read-out: 1A Y93H IC50; replicon 1AY93H; Replicon Assay A
Measured IC50 of individual entries

- compound: "CCc1ccc(C2Oc3cc(-c4cnc([C@@H]5CCCN5C(=O)[C@@H](NC(=O)OC)C(C)C)[nH]4)cc(F)c3-c3cc4cc(-c5cnc([C@@H]6CCCN6C(=O)C(NC(=O)OC)C6CCOC(C)(C)C6)[nH]5)ccc4n32)s1 (single isomer, unassigned) [Compound 147]"
  IC50 / nM: 0.43
- compound: "CCCc1ccc(C2Oc3cc(-c4cnc([C@@H]5CCCN5C(=O)[C@@H](NC(=O)OC)C(C)C)[nH]4)cc(F)c3-c3cc4cc(-c5cnc([C@@H]6CCCN6C(=O)C(NC(=O)OC)C6C[C@@H](C)O[C@@H](C)C6)[nH]5)ccc4n32)s1 (single isomer, unassigned) [Compound 370]"
  IC50 / nM: 0.0022
- compound: "COC(=O)NC(C(=O)N1[C@@H]2C[C@@H]2C[C@H]1c1ncc(-c2ccc3c(c2)cc2n3C(c3ccc(C4CC4)s3)Oc3cc(-c4cnc([C@@H]5CCCN5C(=O)[C@@H](NC(=O)OC)C(C)C)[nH]4)cc(F)c3-2)[nH]1)C1CCOC(C)(C)C1 (single isomer, unassigned) [Compound 277]"
  IC50 / nM: 0.13
- compound: "COC(=O)NC(C(=O)N1CCC[C@H]1c1ncc(-c2ccc3c(c2)cc2n3C(c3ccc(C(C)C)s3)Oc3cc(-c4cnc([C@@H]5CCCN5C(=O)[C@@H](NC(=O)OC)C(C)C)[nH]4)cc(F)c3-2)[nH]1)C1CCOC(C)(C)C1 (single isomer, unassigned) [Compound 236]"
  IC50 / nM: 0.18
